meta.source: patent US20160058782A1

Test system: Maillard reaction (Human Serum Albumin and Glucose)
Assay: Measurement of the Maillard reaction inhibitory activity (fluorescent products of human serum albumin and glucose, 60° C., 40 hours)
Settings: Conc. 0.1 mg/mL
measured parameter: Maillard reaction inhibition ratio (%)
Could you give me the number in %? Just the number is fine.

{"compound": "O=C(OC[C@H]1O[C@@H](OC(=O)c2cc(O)c(O)c(OC(=O)c3cc(O)c(O)c(O)c3)c2)[C@H](OC(=O)c2cc(O)c(O)c(OC(=O)c3cc(O)c(O)c(O)c3)c2)[C@@H](OC(=O)c2cc(O)c(O)c(OC(=O)c3cc(O)c(O)c(O)c3)c2)[C@@H]1OC(=O)c1cc(O)c(O)c(OC(=O)c2cc(O)c(O)c(O)c2)c1)c1cc(O)c(O)c(OC(=O)c2cc(O)c(O)c(O)c2)c1 [Tannic acid, reference compound]", "tested target": "Maillard reaction (Human Serum Albumin and Glucose)", "Maillard reaction inhibition ratio (%)": 48.7}
{"compound": "O=C(OC1C(O)OC2COC(=O)c3cc(Oc4c(C(=O)OC5C(O)OC6COC(=O)c7cc(Oc8c(C(=O)OC9C(O)OC%10COC(=O)c%11cc(O)c(O)c(O)c%11-c%11c(cc(O)c(O)c%11O)C(=O)O[C@H]%10C9OC(=O)c9cc(O)c(O)c(O)c9)cc(O)c(O)c8O)c(O)c(O)c7-c7c(cc(O)c(O)c7O)C(=O)O[C@H]6C5OC(=O)c5cc(O)c(O)c(O)c5)cc(O)c(O)c4O)c(O)c(O)c3-c3c(cc(O)c(O)c3O)C(=O)O[C@H]2C1OC(=O)c1cc(O)c(O)c(O)c1)c1cc(O)c(O)c(O)c1 (stereo partly drawn)", "tested target": "Maillard reaction (Human Serum Albumin and Glucose)", "Maillard reaction inhibition ratio (%)": 46.6}
{"compound": "O=C1OC2C(O)OC3COC(=O)c4cc(O)c(O)c(O)c4-c4c(O)c(O)c5oc(=O)c6c(c(O)c(O)c7oc(=O)c4c5c76)-c4c(cc(O)c(O)c4O)C(=O)O[C@H]3C2OC(=O)c2cc(O)c(O)c(O)c2-c2c1cc(O)c(O)c2O (stereo partly drawn)", "tested target": "Maillard reaction (Human Serum Albumin and Glucose)", "Maillard reaction inhibition ratio (%)": 36.2}
{"compound": "O=C1OC[C@H]2OC(O)[C@H](O)[C@@H](O)[C@@H]2OC(=O)c2cc(O)c(O)c(O)c2-c2c(O)c(O)c3oc(=O)c4c(c(O)c(O)c5oc(=O)c2c3c54)-c2c1cc(O)c(O)c2O (stereo partly drawn)", "tested target": "Maillard reaction (Human Serum Albumin and Glucose)", "Maillard reaction inhibition ratio (%)": 32.1}
{"compound": "O=C(OC1C(O)OC2COC(=O)c3cc(Oc4c(C(=O)OC5C(O)OC6COC(=O)c7cc(O)c(O)c(O)c7-c7c(cc(O)c(O)c7O)C(=O)O[C@H]6C5OC(=O)c5cc(O)c(O)c(O)c5)cc(O)c(O)c4O)c(O)c(O)c3-c3c(cc(O)c(O)c3O)C(=O)O[C@H]2C1OC(=O)c1cc(O)c(O)c(O)c1)c1cc(O)c(O)c(O)c1 (stereo partly drawn)", "tested target": "Maillard reaction (Human Serum Albumin and Glucose)", "Maillard reaction inhibition ratio (%)": 21.2}

Alright, here's another compound for you.
# get_value(readout='Maillard reaction inhibition ratio (%)', item= O=c1oc2c(O)c(O)cc3c(=O)oc4c(O)c(O)cc1c4c23 [Ellagic acid dihydrate, ellagic acid dihydrate, reference compound] ) 12.0
